Just for reference, paper PMC3653324 is where these values come from.

system: P-glycoprotein (PgP); test: P-glycoprotein; type: cell-based, rat; details: H4IIE cells, MTT, 24 hr, single exposure concentration (20 or 50 μM), without CSA
Endpoint label: % Control(Compound) (% Control)
Express the result in % Control but write the number alone.

Input line: % Control(Compound) lookup needed for CCc1ccc2oc(-c3ccc(O)c(O)c3)c(O)c(=O)c2c1 [CSMC-9, 6-ethyl-3,3',4'-trihydroxy flavone] , thanks.
Output line: 97.0

Input line: % Control(Compound) lookup needed for Cc1ccc2oc(-c3ccc(O)c(O)c3)c(O)c(=O)c2c1 [CSMC-11, 6-methyl-3,3',4'-trihydroxy flavone] , thanks.
Output line: 80.3

Input line: % Control(Compound) lookup needed for `CCOc1cc(-c2ccc(O)c(O)c2)nc2ccccc12` , thanks.
Output line: 81.3

Input line: % Control(Compound) lookup needed for `CC(C)Oc1cc(-c2ccc(O)c(O)c2)nc2ccccc12` , thanks.
Output line: 80.8

Input line: % Control(Compound) lookup needed for CCCc1ccc2oc(-c3ccc(O)c(O)c3)c(O)c(=O)c2c1 [CSMC-13, 6-propyl-3,3',4'-trihydroxy flavone] , thanks.
Output line: 87.9

Input line: % Control(Compound) lookup needed for `COc1cc(-c2ccc(O)c(O)c2)nc2ccccc12` , thanks.
Output line: 85.9

Input line: % Control(Compound) lookup needed for O=c1cc(-c2cc(O)c(O)c(O)c2)oc2ccccc12 [CSMC-19, 3',4',5'-trihydroxyflavone] , thanks.
Output line: 88.4

Input line: % Control(Compound) lookup needed for `COc1cc(-c2oc3cc(C)c(C)cc3c(=O)c2O)ccc1O` , thanks.
Output line: 70.8

Input line: % Control(Compound) lookup needed for Cc1cc(O)c(C(=O)/C=C/c2ccc(O)c(O)c2)cc1C [CSMC-10, 4',5'-dimethyl-2',3,4-trihydroxychalcone] , thanks.
Output line: 73.4

Input line: % Control(Compound) lookup needed for O=c1c(O)c(-c2ccc(O)c(O)c2)oc2c1ccc1ccccc12 [CSMC-6, 3,3',4'-trihydroxy alpha-naphthoflavone] , thanks.
Output line: 68.3
